Source: patent US20230365662A1

Molecular target: HRgpA-6H (Porphyromonas gingivalis) (UniProt P28784)
Assay: ELISA, FASEBA Fab on coated HRgpA-6H
MEASUREMENT_TYPE: Ratio OD(Variant)/OD(WT)
# respond with the number and nothing more

Measured Ratio OD(Variant)/OD(WT) of KB001 mouse Fab VL S57E (Fab, V domains shown) VH: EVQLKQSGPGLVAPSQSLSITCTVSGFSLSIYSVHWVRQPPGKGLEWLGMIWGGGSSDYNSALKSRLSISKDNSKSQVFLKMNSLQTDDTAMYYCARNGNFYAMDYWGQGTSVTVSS VL: QIVLTQSPAIMSASLGERVTMTCTASSSVSSSFLHWYQQKPGSSPQLWIYSTSNLAEGVPARFSGSGSGTSYSLTISSMEAEDAATYYCHQYHHSPYIYTFGGGTKLEIK : 1.03

Others:
What the record says about KB001 mouse Fab VL S28T/S12R (Fab, V domains shown) VH: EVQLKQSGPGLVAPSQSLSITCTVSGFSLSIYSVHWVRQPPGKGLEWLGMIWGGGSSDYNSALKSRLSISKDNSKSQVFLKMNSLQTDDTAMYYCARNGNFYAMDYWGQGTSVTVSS VL: QIVLTQSPAIMRASLGERVTMTCTASSTVSSSFLHWYQQKPGSSPQLWIYSTSNLASGVPARFSGSGSGTSYSLTISSMEAEDAATYYCHQYHHSPYIYTFGGGTKLEIK : Ratio OD(Variant)/OD(WT) is 0.995

Entry KB001 mouse Fab VL N54Q (Fab, V domains shown) VH: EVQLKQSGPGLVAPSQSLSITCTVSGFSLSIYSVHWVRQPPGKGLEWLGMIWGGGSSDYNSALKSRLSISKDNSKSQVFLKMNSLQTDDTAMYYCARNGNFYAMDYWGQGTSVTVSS VL: QIVLTQSPAIMSASLGERVTMTCTASSSVSSSFLHWYQQKPGSSPQLWIYSTSQLASGVPARFSGSGSGTSYSLTISSMEAEDAATYYCHQYHHSPYIYTFGGGTKLEIK ; Ratio OD(Variant)/OD(WT) = 1.11

# Ratio OD(Variant)/OD(WT) (binder: KB001 mouse Fab VL S27K/S68Y (Fab, V domains shown) VH: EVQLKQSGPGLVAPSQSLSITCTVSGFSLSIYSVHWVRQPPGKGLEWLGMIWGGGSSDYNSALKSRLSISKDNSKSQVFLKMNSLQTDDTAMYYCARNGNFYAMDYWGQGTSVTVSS VL: QIVLTQSPAIMSASLGERVTMTCTASKSVSSSFLHWYQQKPGSSPQLWIYSTSNLASGVPARFSGSGYGTSYSLTISSMEAEDAATYYCHQYHHSPYIYTFGGGTKLEIK ) is 0.981

GET /value?item= KB001 mouse Fab VL S27W (Fab, V domains shown) VH: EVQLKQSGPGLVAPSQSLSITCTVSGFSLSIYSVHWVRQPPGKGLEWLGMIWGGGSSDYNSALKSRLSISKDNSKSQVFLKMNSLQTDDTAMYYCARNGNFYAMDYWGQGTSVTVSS VL: QIVLTQSPAIMSASLGERVTMTCTASWSVSSSFLHWYQQKPGSSPQLWIYSTSNLASGVPARFSGSGSGTSYSLTISSMEAEDAATYYCHQYHHSPYIYTFGGGTKLEIK &field=Ratio OD(Variant)/OD(WT) returns 0.801
